- assay.system: hamster galectin-1 mutant C2S-Gal-1 (Cys-2 to Ser) (Cricetulus griseus, UniProt P48538, C3S)
- Construct: made in house; host or cells: E. coli (for the recombinant CHO galectin-1)
- Sequence (P48538 whole entry C3S): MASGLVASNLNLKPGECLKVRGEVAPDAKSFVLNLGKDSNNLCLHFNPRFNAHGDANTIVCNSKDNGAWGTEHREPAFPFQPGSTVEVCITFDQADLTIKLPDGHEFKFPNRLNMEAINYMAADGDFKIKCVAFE
- assay.info: Equilibrium dialysis, binding of N-acetyllactosamine
- particulars: stated as similar affinity to the mutants
measure: Kd

>>> observed_value("CC(=O)N[C@H]1C(O)O[C@H](CO)[C@@H](O[C@@H]2O[C@H](CO)[C@H](O)[C@H](O)[C@H]2O)[C@@H]1O (stereo partly shown) [N-acetyllactosamine]")
"~90 µM"

====

- assay.system: native galectin-1 (native lectin) (Cricetulus griseus, UniProt P48538)
- Sequence (P48538 2-135): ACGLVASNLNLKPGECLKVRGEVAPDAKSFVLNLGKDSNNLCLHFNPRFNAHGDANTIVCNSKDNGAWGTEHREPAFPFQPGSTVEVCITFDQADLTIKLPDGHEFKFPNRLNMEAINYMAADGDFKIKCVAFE
- assay.info: Equilibrium dialysis, binding of N-acetyllactosamine
- particulars: stated as similar affinity to the mutants
pKd: −log10 of the molar value.
measure: pKd

>>> observed_value("CC(=O)N[C@H]1C(O)O[C@H](CO)[C@@H](O[C@@H]2O[C@H](CO)[C@H](O)[C@H](O)[C@H]2O)[C@@H]1O (stereo partly shown) [N-acetyllactosamine]")
"~4.05"
